- ASSAY_NOTES: Dose that causes approximately 50% lethality in mice, when given intravenously
- Type: ADME, organism-based
- CONDITION_SUMMARY: mouse, in vivo, iv
Threshold 300 mg/kg: LD50 strictly smaller gives YES, otherwise NO.

> print(dat)
                   test.smiles  assigned.category
1   CN1CCS/C1=N\C(=O)OC(C)(C)C                YES
2  CN1CCS/C1=N\CNC(=O)c1ccccc1                YES
3    CN1CCS/C1=N\C(=O)c1cccnc1                YES
4    CN1CCS/C1=N\C(=O)CCC(=O)O                 NO
5         CCNC(=O)/N=C1\SCCN1C                 NO
6    CC(=O)NCC(=O)/N=C1\SCCN1C                 NO

Exam item: Quick check: does CN1CCS/C1=N\C(=O)CN have LD50 under 300 mg/kg?
Marked response: NO

Value source: ChEMBL document CHEMBL1121475
